- Test system: RSK4(Kin.Dom.1-N-terminal)
- Construct: gene RPS6KA6
- Condition parameters: concentration: 1 μM, replicates: in singlicate; n = 1;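 also: KINOMEscan kinase panel screen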
Measured quantity: %Inh (%)

Compound	Endpoint value
COc1cc(Nc2nccc(N3CCC(NC(=O)c4cc5ccccc5s4)C3)n2)cc(OC)c1OC (centres unmarked)	0
O=C(NC1CCN(c2ccnc(Nc3ccc(F)cc3)n2)C1)c1cc2ccccc2s1 (centres unmarked)	0
Cl.Cl.NCC(NCc1ccc(-c2ccnc3[nH]ccc23)s1)c1ccccc1 (centres unmarked)	55
COC(=O)Nc1nc2cc(Oc3ccc(NC(=O)Nc4cc(C(F)(F)F)ccc4F)cn3)ccc2[nH]1.Cl.Cl	0
O=C(O)C(F)(F)F.O=C(O)C(F)(F)F.O=c1[nH]ccc2nc(N[C@@H]3CCCNC3)nc(Nc3ccc(S(=O)(=O)N4CCOCC4)cc3)c12	99.4
COc1ccc(Nc2nccc(NCCNC(=O)c3cc4ccccc4s3)n2)cc1	0
CC(=O)Nc1nc2cnc(Nc3cc(NC(=O)c4cccc(C5(C#N)CC5)c4Cl)ccc3C)nc2s1	0
COc1ccc(-c2coc3ccc(-c4nnc(SCc5ccc(OC)c(C(F)(F)F)c5)o4)cc23)cc1	25
CCn1c(-c2nonc2N)nc2c(C#CC(C)(C)O)nc(OC[C@H](N)c3ccccc3)cc21	0
C[C@@H]1CC[C@@H](C(=O)Nc2ccccc2)CN1c1cc(-c2ccc3c(N)n[nH]c3c2)nc(N)n1	0
c1ccc(Oc2ccc(Nc3ccnc4cc(-c5ccc(CNCCN6CCOCC6)o5)ccc34)cc2)nc1	0
Nc1n[nH]c2cnc(-c3ccccc3)cc12	19
Cc1ccc(C(=O)N2CC[C@@H](O)C2)cc1-n1c(C)cc(OCc2ccc(F)cc2F)c(Br)c1=O	0
Cc1ccc(F)c(C(=O)Nc2cccc(-c3nn4ccccc4c3-c3ccnc(Nc4cccc(F)c4)n3)c2)c1F	0

====

- Test system: HASPIN
- Construct: gene GSG2
- Condition parameters: concentration: 1 μM, replicates: in singlicate; n = 1
# cutoff 20% applies to %Inh; >= gives satisfied, < gives not satisfied

Molecule	Assigned class
Nc1n[nH]c2cnc(-c3ccccc3)cc12 [SB-642124]	satisfied
Fc1ccc(-c2ncn(C3CCNCC3)c2-c2ccnc(Oc3ccc(-c4ccccc4)cc3)n2)cc1 [SB-245391]	satisfied
Cl.NC(=O)c1cccc(Nc2nccc(Nc3ccc(Oc4c(Cl)cccc4Cl)c(Cl)c3)n2)c1 [GW659009]	not satisfied
c1ccc(-c2n[nH]cc2Nc2ccnc3ccccc23)nc1 [GW694077]	satisfied
CNC(=O)c1ccccc1Nc1nc(Nc2ccc(N3CCOCC3)cc2)ncc1Cl.Cl [GSK1576028]	satisfied

====

Recorded %Inh values for a group of molecules are listed next.
- Tested on: EPHA8
- Condition parameters: concentration: 1 μM, replicates: in singlicate; n = 1
Measured quantity: %Inh (%)

Smiles input	Measured quantity	Endpoint value
CN(C)S(=O)(=O)c1cc(-c2ccc3nccc(-c4cccc(S(N)(=O)=O)c4)c3c2)cnc1N	%Inh	27
CC(C)c1nc(-c2cccc(NS(=O)(=O)c3c(F)cccc3F)c2F)c(-c2ccnc(Nc3ccc(N4CCOCC4)nc3)n2)s1	%Inh	99.4
COc1cc(Nc2nccc(-c3c(-c4cccc(NC(=O)c5c(F)cccc5F)c4)nn4ncccc34)n2)cc(OC)c1OC	%Inh	56
Cc1occc1-c1ncc(OC[C@@H](N)Cc2c[nH]c3ccccc23)cc1-c1ccc2[nH]nc(C)c2c1.O=C(O)C(F)(F)F	%Inh	39
